- Tested on: PDE3
- protocol summary: Inhibition of cyclic nucleotide PDE activity (Assay I), PDE3
- Format: biochemical, guinea pig
- test context: mean ± S.E.M. (n); read-out: IC50 on phosphodiesterase isozyme 3
Catalogue of pIC50 values
Give only the number. pIC50 is defined as minus log10 of concentration in molar units.

Field: example entries. Status: answers known.
O=c1cc(-c2ccc(O)c(O)c2)oc2cc(O)cc(O)c12 [Luteolin] | 5.00
O=c1c(O)c(-c2cc(O)c(O)c(O)c2)oc2cc(O)cc(O)c12 [Myricetin] | 4.91
O=c1cc(-c2ccc(O)cc2)oc2cc(O)cc(O)c12 [Apigenin] | 4.98
O=c1c(-c2ccc(O)cc2)coc2cc(O)cc(O)c12 [Genistein] | 4.89

Now for a further compound.
pIC50 measured on Cc1[nH]c(=O)c(C#N)cc1-c1ccncc1 [milrinone, reference compound] = 5.62
